# target.of.assay: Mitogen-activated protein kinase kinase kinase 5 (Homo sapiens)
# Sequence (Q99683 whole entry): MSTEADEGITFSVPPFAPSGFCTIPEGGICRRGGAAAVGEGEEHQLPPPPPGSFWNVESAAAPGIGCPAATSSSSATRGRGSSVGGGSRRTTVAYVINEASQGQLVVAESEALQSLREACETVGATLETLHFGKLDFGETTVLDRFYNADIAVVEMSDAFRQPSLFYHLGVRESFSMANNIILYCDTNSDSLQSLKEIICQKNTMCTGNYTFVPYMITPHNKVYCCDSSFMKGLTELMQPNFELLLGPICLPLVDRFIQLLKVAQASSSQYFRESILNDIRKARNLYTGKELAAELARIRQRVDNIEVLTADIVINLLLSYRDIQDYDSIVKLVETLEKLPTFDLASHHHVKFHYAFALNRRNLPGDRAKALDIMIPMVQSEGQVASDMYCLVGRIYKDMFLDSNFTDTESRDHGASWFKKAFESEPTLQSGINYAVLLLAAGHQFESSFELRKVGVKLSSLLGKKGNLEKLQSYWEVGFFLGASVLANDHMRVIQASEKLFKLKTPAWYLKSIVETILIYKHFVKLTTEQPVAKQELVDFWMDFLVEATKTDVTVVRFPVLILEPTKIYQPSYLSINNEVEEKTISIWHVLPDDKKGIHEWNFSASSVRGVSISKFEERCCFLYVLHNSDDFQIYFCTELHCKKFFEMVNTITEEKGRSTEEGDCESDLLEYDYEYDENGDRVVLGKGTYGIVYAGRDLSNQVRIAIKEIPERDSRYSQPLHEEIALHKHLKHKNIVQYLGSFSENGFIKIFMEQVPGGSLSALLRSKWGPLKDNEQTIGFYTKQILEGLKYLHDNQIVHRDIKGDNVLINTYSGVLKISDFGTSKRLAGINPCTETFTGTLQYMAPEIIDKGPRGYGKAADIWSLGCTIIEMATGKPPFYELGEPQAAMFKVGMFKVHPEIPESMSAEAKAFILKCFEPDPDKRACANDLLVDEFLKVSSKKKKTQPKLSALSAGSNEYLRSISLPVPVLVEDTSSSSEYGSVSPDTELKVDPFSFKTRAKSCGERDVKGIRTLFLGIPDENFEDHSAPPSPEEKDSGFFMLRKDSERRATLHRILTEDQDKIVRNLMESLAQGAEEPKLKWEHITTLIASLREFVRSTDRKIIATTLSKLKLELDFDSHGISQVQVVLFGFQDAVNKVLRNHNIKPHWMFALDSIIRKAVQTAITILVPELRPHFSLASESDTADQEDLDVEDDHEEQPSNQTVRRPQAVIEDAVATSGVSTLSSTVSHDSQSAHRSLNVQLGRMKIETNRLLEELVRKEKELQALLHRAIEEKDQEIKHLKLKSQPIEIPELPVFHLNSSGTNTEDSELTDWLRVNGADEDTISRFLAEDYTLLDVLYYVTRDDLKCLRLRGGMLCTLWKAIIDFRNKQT
# assay.protocol: Inhibition of ASK1 (unknown origin)
measurement.label: IC50

Provide one value: measured IC50 of COc1ncc(-c2cc3c(c(NC(=O)CN4CCOCC4)c2)COC3)cc1NS(C)(=O)=O > 10 µM

###

# assay.protocol: Volume of distribution at steady state in Sprague-Dawley rat at 3 mg/kg, po or 1 mg/kg, iv measured up to 7 hrs by LC-MS/MS analysis
# Type: ADME, organism-based
# cond: in vivo, read-out: Vdss
Below, each entry is listed with its recorded Vd.
Just the number please, in L/kg, no unit attached.

Provide one value: measured Vd of COc1ncc(-c2cc(-c3ncc(CN4C[C@@H](C)O[C@@H](C)C4)o3)c3cn[nH]c3c2)cc1NS(C)(=O)=O 3.5

Provide one value: measured Vd of COc1ncc(-c2cc3c(c(NC(=O)CN4CCOCC4)c2)COC3)cc1NS(C)(=O)=O 1.1

Provide one value: measured Vd of COc1ncc(-c2cc3c(c(NC(=O)c4cccc(C)n4)c2)COC3)cc1NS(C)(=O)=O 1.6

Provide one value: measured Vd of COc1ncc(-c2cc3c(c(-c4nnc(C)o4)c2)COC3)cc1NS(C)(=O)=O 0.5

###

# assay.protocol: AUC(infinity) in Brown Norway rat acute OVA model of TH2-driven lung inflammation at 3 mg/kg, po pretreated for 30 mins followed by OVA challenge
# Type: ADME, organism-based
# Set-up: dose 3 mg/kg, time infinity, route oral
# cond: in vivo
measurement.label: AUC(0-inf) (ng·h/mL)
Just the number please, in ng·h/mL, no unit attached.

Provide one value: measured AUC(0-inf) of COc1ncc(-c2cc3c(c(NC(=O)CN4CCOCC4)c2)COC3)cc1NS(C)(=O)=O 454

###

Below, each entry is listed with its recorded Ratio IC50.
# Organism: Homo sapiens
# assay.protocol: Selectivity ratio of IC50 for PI3Kbeta (unknown origin) to IC50 for PI3Kdelta (unknown origin)
Answer using only a numeral; do not append any unit.

compound.structure.string	val
COc1ncc(-c2ccc3c(c2)COC3)cc1NS(C)(=O)=O	2.5
COc1ncc(-c2cc3c(c(NC(C)=O)c2)COC3)cc1NS(C)(=O)=O	13
COc1ncc(-c2cc3c(c(-c4nnc(C)o4)c2)COC3)cc1NS(C)(=O)=O	13

Provide one value: measured Ratio IC50 of COc1ncc(-c2cc3c(c(NC(=O)c4cccc(C)n4)c2)COC3)cc1NS(C)(=O)=O 126

Provide one value: measured Ratio IC50 of COc1ncc(-c2cc3c(c(NC(=O)CN4CCOCC4)c2)COC3)cc1NS(C)(=O)=O 63

Provide one value: measured Ratio IC50 of COc1ncc(-c2cc3c(c(NC(=O)c4csc(C)n4)c2)COC3)cc1NS(C)(=O)=O 63

Provide one value: measured Ratio IC50 of COc1ncc(-c2cc3c(c(-c4ccccn4)c2)COC3)cc1NS(C)(=O)=O 20

Provide one value: measured Ratio IC50 of COc1ncc(-c2cc(NC(=O)c3csc(C)n3)c3cn[nH]c3c2)cc1NS(C)(=O)=O 63

###

# target.of.assay: Phosphatidylinositol 4,5-bisphosphate 3-kinase catalytic subunit delta isoform (Homo sapiens)
# Sequence (O00329 whole entry): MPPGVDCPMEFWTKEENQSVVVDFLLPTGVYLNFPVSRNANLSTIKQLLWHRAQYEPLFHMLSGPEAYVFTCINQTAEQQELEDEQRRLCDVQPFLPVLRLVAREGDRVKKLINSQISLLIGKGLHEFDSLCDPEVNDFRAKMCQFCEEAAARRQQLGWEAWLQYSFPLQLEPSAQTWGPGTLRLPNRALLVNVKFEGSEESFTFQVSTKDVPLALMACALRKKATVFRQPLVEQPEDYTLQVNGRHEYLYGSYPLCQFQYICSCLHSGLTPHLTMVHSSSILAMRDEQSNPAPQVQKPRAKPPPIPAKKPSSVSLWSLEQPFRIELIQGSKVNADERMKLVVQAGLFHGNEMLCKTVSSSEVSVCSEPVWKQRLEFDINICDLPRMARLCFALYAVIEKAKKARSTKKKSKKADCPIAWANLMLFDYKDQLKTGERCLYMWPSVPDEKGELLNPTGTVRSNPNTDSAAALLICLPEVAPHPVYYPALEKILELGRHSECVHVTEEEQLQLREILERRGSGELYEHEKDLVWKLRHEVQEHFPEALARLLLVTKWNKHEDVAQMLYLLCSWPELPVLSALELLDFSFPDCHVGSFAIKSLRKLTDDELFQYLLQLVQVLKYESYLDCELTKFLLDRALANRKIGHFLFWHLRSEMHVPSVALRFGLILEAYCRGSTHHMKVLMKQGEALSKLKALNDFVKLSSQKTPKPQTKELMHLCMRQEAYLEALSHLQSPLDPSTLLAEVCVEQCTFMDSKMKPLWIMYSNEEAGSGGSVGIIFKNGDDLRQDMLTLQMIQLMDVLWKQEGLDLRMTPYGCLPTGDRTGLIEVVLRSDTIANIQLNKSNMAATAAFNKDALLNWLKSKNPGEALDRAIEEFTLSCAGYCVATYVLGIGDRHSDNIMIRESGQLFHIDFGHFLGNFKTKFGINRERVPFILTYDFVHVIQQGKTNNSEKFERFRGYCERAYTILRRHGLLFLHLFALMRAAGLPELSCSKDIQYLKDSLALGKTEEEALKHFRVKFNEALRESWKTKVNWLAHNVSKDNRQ
measurement.label: pIC50
Please express pIC50 as -log10 of the molar concentration.

compound.structure.string	measurement.label	val
COc1ncc(-c2cc3c(c(-c4nnc(C)o4)c2)COC3)cc1NS(C)(=O)=O	pIC50	6.70

Next, consider the following compound.
Provide one value: measured pIC50 of COc1ncc(-c2cc3c(c(NC(=O)c4cccc(C)n4)c2)COC3)cc1NS(C)(=O)=O 6.70

###

# target.of.assay: Phosphatidylinositol 5-phosphate 4-kinase type-2 alpha (Homo sapiens, UniProt P48426)
# Sequence (P48426 whole entry): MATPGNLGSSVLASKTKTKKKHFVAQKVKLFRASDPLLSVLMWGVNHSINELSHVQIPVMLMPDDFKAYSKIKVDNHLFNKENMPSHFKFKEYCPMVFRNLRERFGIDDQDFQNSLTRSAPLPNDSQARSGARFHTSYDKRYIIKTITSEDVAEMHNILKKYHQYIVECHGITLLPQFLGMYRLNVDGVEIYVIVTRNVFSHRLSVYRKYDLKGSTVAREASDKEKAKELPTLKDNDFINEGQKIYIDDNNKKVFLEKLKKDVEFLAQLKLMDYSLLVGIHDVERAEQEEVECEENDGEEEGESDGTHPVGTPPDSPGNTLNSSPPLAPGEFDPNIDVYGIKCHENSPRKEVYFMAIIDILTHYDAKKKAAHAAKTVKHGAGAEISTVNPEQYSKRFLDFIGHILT
measurement.label: IC50

Provide one value: measured IC50 of COc1ncc(-c2cc3c(c(NC(=O)CN4CCOCC4)c2)COC3)cc1NS(C)(=O)=O > 10 µM
